Would you mind telling me the reported Cmax of each entry?
Experiment: Rodent pharmacokinetic study
Assay type: in vivo
Conditions: Wistar, in vivo; Wister rat/Male, 5 mg/kg, Per-Oral
Counter-ions that a name gives are not always drawn.
Answers are plain numbers, in ng/mL.

NCC1CC2CC2N1c1cncc(Cl)c1.O=C(O)/C=C/C(=O)O (centres unmarked) ... 753

Okay, next one:
Query Cmax for NCC1CC2CC2N1c1cccnc1 (centres unmarked) [Example 18, fumarate]
355

* * *

Assay: Rodent pharmacokinetic study
Format: in vivo
Details: Wistar, in vivo; Wister rat/Male, 5 mg/kg, Per-Oral
Where a name gives a salt, the structure may show the parent alone.
I'd be grateful if you could share measured Tmax for these entries.
Answers are plain numbers, in min.

NCC1CC2CC2N1c1cncc(Cl)c1.O=C(O)/C=C/C(=O)O (centres unmarked) ... 22.8

Please look at the following compound next.
Supply recorded Tmax for NCC1CC2CC2N1c1cccnc1 (centres unmarked) [Example 18, fumarate] here.
4.8
